Biological target: 6-phosphogluconate dehydrogenase, decarboxylating (Rattus norvegicus, UniProt P85968)
Sequence (P85968 whole entry): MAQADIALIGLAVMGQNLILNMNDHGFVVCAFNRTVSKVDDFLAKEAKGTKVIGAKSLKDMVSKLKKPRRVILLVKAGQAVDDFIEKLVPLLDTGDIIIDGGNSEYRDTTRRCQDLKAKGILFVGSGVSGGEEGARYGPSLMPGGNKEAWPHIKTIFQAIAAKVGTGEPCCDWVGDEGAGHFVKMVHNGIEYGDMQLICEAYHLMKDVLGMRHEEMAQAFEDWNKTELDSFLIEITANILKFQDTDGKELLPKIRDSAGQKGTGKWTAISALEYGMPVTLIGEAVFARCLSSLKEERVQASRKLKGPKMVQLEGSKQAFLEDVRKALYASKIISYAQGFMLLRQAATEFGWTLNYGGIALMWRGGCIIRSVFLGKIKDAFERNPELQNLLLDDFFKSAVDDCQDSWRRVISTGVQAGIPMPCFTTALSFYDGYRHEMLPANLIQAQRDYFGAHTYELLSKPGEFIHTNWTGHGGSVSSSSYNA

smiles.text: NC(=O)c1ccc(N)[n+]([C@@H]2O[C@H](COP(=O)(O)OP(=O)(O)OC[C@H]3O[C@@H](n4cnc5c(N)ncnc54)[C@H](OP(=O)(O)O)[C@@H]3O)[C@@H](O)[C@H]2O)c1
value.units: µM
Ki: 0.1
